# System tested: human GPR52 (Homo sapiens, UniProt Q9Y2T5)
# Construct: expressed in transfected cells; host or cells: CHO(dhfr-) cells
# Sequence (Q9Y2T5 whole entry): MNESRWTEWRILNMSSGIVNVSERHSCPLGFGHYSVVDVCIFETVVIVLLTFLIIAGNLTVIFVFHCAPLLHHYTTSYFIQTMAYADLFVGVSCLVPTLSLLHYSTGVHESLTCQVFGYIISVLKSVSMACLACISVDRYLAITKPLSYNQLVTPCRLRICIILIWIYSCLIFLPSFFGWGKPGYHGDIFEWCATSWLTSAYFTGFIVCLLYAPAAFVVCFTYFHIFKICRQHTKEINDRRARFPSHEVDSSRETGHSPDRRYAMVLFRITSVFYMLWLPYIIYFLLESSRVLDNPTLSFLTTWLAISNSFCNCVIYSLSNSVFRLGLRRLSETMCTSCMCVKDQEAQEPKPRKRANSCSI
# Test name: Increase of intracellular cAMP concentration in human GPR52-expressing CHO cell (AlphaScreen cAMP assay)
# Assay type: cell-based
# Condition: 0.5 h; test compound 10 µm, 37°C, 30 min, human GPR52-expressing CHO(dhfr-) cells; 100% = cAMP with 1 µM N-(2-hydroxyethyl)-3-[2-[3-(trifluoromethyl)benzyl]-1-benzofuran-4-yl]benzamide, 0% = DMSO; read-out: GPR52 agonist activity (%)
Structures can show the parent of a compound that is named as a salt.
activation at 10 µM by entry:
Outcome measure: activation at 10 µM (%)

1) COCCn1nccc1C(=O)Nc1sc(Cc2cc(F)cc(Cl)c2)nc1C [Example 161] :: 81
2) COc1cccc(Cc2nc(C)c(NC(=O)c3ccnn3C)s2)c1 [Example 219] :: 82
3) Cc1nc(Cc2cccc(C(F)(F)F)c2)sc1NC(=O)C1CCCNC1 (stereo not drawn) [Example 29, hydrochloride] :: 71
4) Cc1nc(Cc2cc(F)cc(Cl)c2)sc1NC(=O)c1c(Cl)cnn1C [Example 206] :: 74
5) Cc1nc(Cc2cccc(C(F)(F)F)c2)sc1NC(=O)C1CCNCC1 [Example 33, hydrochloride] :: 70
6) Cc1nc(Cc2cc(F)cc(Cl)c2)sc1NC(=O)c1cc(Cl)nn1C [Example 149] :: 75
7) Cc1nc(Cc2cc(F)cc(Cl)c2)sc1NC(=O)c1cc(Cn2ccnc2)nn1C [Example 243] :: 77
8) Cc1nc(Cc2cc(F)cc(Cl)c2)sc1NC(=O)c1ccnn1CC(C)C [Example 162] :: 70
9) Cc1nc(Cc2ccc(F)c(Cl)c2)sc1NC(=O)c1ccnn1C [Example 156] :: 76

---

# System tested: human GPR52 (Homo sapiens, UniProt Q9Y2T5)
# Construct: expressed in transfected cells; host or cells: CHO(dhfr-) cells
# Test name: Increase of intracellular cAMP concentration in human GPR52-expressing CHO cell (AlphaScreen cAMP assay)
# Type: cell-based
# Condition: 0.5 h; test compound 10 µm, 37°C, 30 min, human GPR52-expressing CHO(dhfr-) cells; 100% = cAMP with 1 µM N-(2-hydroxyethyl)-3-[2-[3-(trifluoromethyl)benzyl]-1-benzofuran-4-yl]benzamide, 0% = DMSO; read-out: GPR52 agonist activity (%)
activation at 10 µM by entry:
Outcome measure: activation at 10 µM (%)

1. Cc1nc(Cc2cccc(C(F)(F)F)c2)sc1NC(=O)c1ccoc1C :: 80
2. Cc1cccc(Cc2nc(C)c(NC(=O)c3ccnn3C)s2)c1 :: 90
3. COc1cc(C(=O)Nc2sc(Cc3cc(F)cc(Cl)c3)nc2C)n(C)n1 :: 79
4. Cn1nccc1C(=O)Nc1cnc(Cc2cccc(C(F)(F)F)c2)s1 :: 92

---

activation at 10 µM by entry:
# System tested: human GPR52 (Homo sapiens, UniProt Q9Y2T5)
# Construct: expressed in transfected cells; host or cells: CHO(dhfr-) cells
# Test name: Increase of intracellular cAMP concentration in human GPR52-expressing CHO cell (AlphaScreen cAMP assay)
# Assay type: cell-based
# Condition: 0.5 h; test compound 10 µm, 37°C, 30 min, human GPR52-expressing CHO(dhfr-) cells; 100% = cAMP with 1 µM N-(2-hydroxyethyl)-3-[2-[3-(trifluoromethyl)benzyl]-1-benzofuran-4-yl]benzamide, 0% = DMSO; read-out: GPR52 agonist activity (%)
Outcome measure: activation at 10 µM (%)

1) Cc1nc(Cc2cc(F)cc(Cl)c2)sc1NC(=O)c1c(C)noc1C :: 94
2) Cc1nc(Cc2ccc(F)c(F)c2)sc1NC(=O)c1ccnn1C :: 74
3) Cc1nc(Cc2cc(F)cc(Cl)c2)sc1NC(=O)C1(S(C)(=O)=O)CC1 :: 89
4) Cc1nc(Cc2cc(F)cc(Cl)c2)sc1NC(=O)c1ccnn1CC(N)=O :: 78
5) Cc1cc(C(=O)Nc2sc(Cc3cc(F)cc(Cl)c3)nc2C)n(C)n1 :: 78
6) Cc1nc(Cc2cc(F)cc(C3CC3)c2)sc1NC(=O)c1ccnn1C :: 99
7) Cc1nc(Cc2cc(F)cc(Cl)c2)sc1NC(=O)c1ccnn1C(C)C :: 69
8) Cc1nc(Cc2cccc(C(F)(F)F)c2)sc1NC(=O)c1nccn1C :: 72
9) CCCCc1nc(Cc2cccc(C(F)(F)F)c2)sc1NC(=O)c1ccnn1C :: 72

---

# System tested: human GPR52 (Homo sapiens)
# Construct: expressed in transfected cells; host or cells: CHO(dhfr-) cells
# Test name: Increase of intracellular cAMP concentration in human GPR52-expressing CHO cell (AlphaScreen cAMP assay)
# Assay type: cell-based
# Condition: 0.5 h; test compound 10 µm, 37°C, 30 min, human GPR52-expressing CHO(dhfr-) cells; 100% = cAMP with 1 µM N-(2-hydroxyethyl)-3-[2-[3-(trifluoromethyl)benzyl]-1-benzofuran-4-yl]benzamide, 0% = DMSO; read-out: GPR52 agonist activity (%)
Output true for activation at 10 µM not less than 80%; output false otherwise.

1. CCOC(=O)c1cc(C(=O)Nc2sc(Cc3cc(F)cc(Cl)c3)nc2C)n(C)n1 [Example 159] :: false
2. C=Cc1nc(Cc2cccc(C(F)(F)F)c2)sc1NC(=O)c1ccnn1C [Example 12] :: false
3. CSc1ncccc1C(=O)Nc1sc(Cc2cccc(C(F)(F)F)c2)nc1C [Example 76] :: true
4. Cn1nccc1C(=O)Nc1sc(Cc2cccc(C(F)(F)F)c2)nc1C(F)(F)F [Example 17] :: true
5. Cc1nc(Cc2cc(F)cc(Cl)c2)sc1NC(=O)c1cccc(S(C)(=O)=O)c1 [Example 228] :: false
6. CCc1nc(Cc2cccc(C(F)(F)F)c2)sc1NC(=O)c1ccnn1C [Example 11] :: true
7. Cc1nc(Cc2cc(F)cc(Cl)c2)sc1NC(=O)c1cc(CO)nn1C [Example 166] :: true
8. Cc1nc(Cc2cc(F)cc(Cl)c2)sc1NC(=O)C1CCS(=O)(=O)C1 (centres unmarked) [Example 216] :: false
9. Cc1nc(Cc2cc(F)cc(Cl)c2)sc1NC(=O)c1cc([N+](=O)[O-])nn1C [Example 158] :: false
10. Cc1nc(Cc2cc(F)cc(Cl)c2)sc1NC(=O)c1cc(CS(C)(=O)=O)nn1C [Example 242] :: false
11. Cc1nc(Cc2cc(F)cc(Cl)c2)sc1NC(=O)c1cc(CC#N)nn1C [Example 230] :: false

---

GPR52 agonist activity (%) by entry:
# System tested: human GPR52 (Homo sapiens, UniProt Q9Y2T5)
# Construct: expressed in transfected cells; host or cells: CHO(dhfr-) cells
# Test name: Increase of intracellular cAMP concentration in human GPR52-expressing CHO cell (AlphaScreen cAMP assay)
# Type: cell-based
# Condition: test compound 10 µm, 37°C, 30 min, human GPR52-expressing CHO(dhfr-) cells; 100% = cAMP with 1 µM N-(2-hydroxyethyl)-3-[2-[3-(trifluoromethyl)benzyl]-1-benzofuran-4-yl]benzamide, 0% = DMSO
Where a name gives a salt, the structure may show the parent alone.
Outcome measure: GPR52 agonist activity (%)

1. Cc1cc(C(=O)Nc2sc(Cc3cccc(C(F)(F)F)c3)nc2C)c(C)o1 :: 78
2. Cc1nc(Cc2cccc(C(F)(F)F)c2)sc1NC(=O)c1ccnn1C :: 81
3. Cc1nocc1C(=O)Nc1sc(Cc2cccc(C(F)(F)F)c2)nc1C :: 93
4. CCNC(=O)N1CCC(C(=O)Nc2sc(Cc3cccc(C(F)(F)F)c3)nc2C)C1 (stereo not drawn) :: 80
5. CCS(=O)(=O)N1CCC(C(=O)Nc2sc(Cc3cccc(C(F)(F)F)c3)nc2C)C1 (stereo not drawn) :: 81
6. Cc1nc(Cc2cccc(C(F)(F)F)c2)sc1NC(=O)C1CCNC1 (stereo not drawn) [Example 20, hydrochloride] :: 74

---

# System tested: human GPR52 (Homo sapiens, UniProt Q9Y2T5)
# Construct: expressed in transfected cells; host or cells: CHO(dhfr-) cells
# Test name: Increase of intracellular cAMP concentration in human GPR52-expressing CHO cell (AlphaScreen cAMP assay)
# Type: cell-based
# Condition: 0.5 h; test compound 10 µm, 37°C, 30 min, human GPR52-expressing CHO(dhfr-) cells; 100% = cAMP with 1 µM N-(2-hydroxyethyl)-3-[2-[3-(trifluoromethyl)benzyl]-1-benzofuran-4-yl]benzamide, 0% = DMSO; read-out: GPR52 agonist activity (%)
Output True for activation at 10 µM not less than 80%; output False otherwise.

1. CCCn1nccc1C(=O)Nc1sc(Cc2cc(F)cc(Cl)c2)nc1C [Example 153] :: False
2. CCN1CC(C(=O)Nc2sc(Cc3cccc(C(F)(F)F)c3)nc2C)CC1=O (stereo not drawn) [Example 4] :: False
3. Cc1nc(Cc2cc(F)cc(Cl)c2)sc1NC(=O)c1ccnn1C(F)F [Example 150] :: False
4. COCCNC(=O)C1(C(=O)Nc2sc(Cc3cc(F)cc(Cl)c3)nc2C)CC1 [Example 175] :: False
5. Cc1nc(Cc2cc(F)cc(Cl)c2)sc1NC(=O)c1nc([N+](=O)[O-])cn1C [Example 169] :: False
6. Cc1nc(Cc2cc(F)cc(Cl)c2)sc1NC(=O)c1cc(S(C)(=O)=O)nn1C [Example 246] :: False
7. Cc1nc(Cc2cc(F)cc(Cl)c2)sc1NC(=O)c1cnn(C)c1 [Example 171] :: False
8. Cc1nc(Cc2cc(F)cc(Cl)c2)sc1NC(=O)Cn1cnnn1 [Example 252] :: False
9. Cc1nc(Cc2cc(F)cc(Cl)c2)sc1NC(=O)c1cc([S+](C)[O-])nn1C (stereo not drawn) [Example 247] :: False
10. Cc1nc(Cc2cc(F)cc(Cl)c2)sc1NC(=O)C1CCS(=O)(=O)CC1 [Example 208] :: False
11. Cc1nc(Cc2cc(F)cc(Cl)c2)sc1NC(=O)c1ncn(C)c1C [Example 180] :: False
12. Cc1nc(Cc2cc(F)cc(Cl)c2)sc1NC(=O)c1scnc1C [Example 184] :: True
13. Cc1nc(Cc2cccc(C(F)(F)F)c2)sc1NC(=O)c1ccc(CCN2CCCC2)nc1 [Example 122] :: True
